system: EKVX NSCLC; experiment: NCI-60 one-dose screen, 48 h; details: 10 µM unless noted
The panel holds about 83,000 compounds, 20% with a hit somewhere; the sample as a whole holds those more often. Active and inactive are the calls of the source. Rule for the calls: active = growth percent below 10; inactive = the rest.
Output constraint: value belongs to True for active, False for inactive

compound: C=CCCCCCCCCC(=O)[O][Sn]([CH2]CCC)([CH2]CCC)[CH2]CCC
answer label: True

compound: N#Cc1ccc(NC(=O)Nc2ccc(Oc3ccc(NC(=O)Nc4ccc(C#N)cc4)cc3)cc2)cc1
answer label: False

compound: Clc1ccccc1[C@@H]1C[C@@H]2Cc3cc(Br)c4ccccc4c3N1O2
answer label: False

compound: CCN(CC)c1ccc(N=Nc2cc(Cl)ccc2Cl)c(NC(=O)CCC(=O)O)c1
answer label: False

compound: CN(C)c1ccc2[nH]c3c(C(N)=O)cc(=O)c(=O)c=3oc2c1
answer label: False

compound: CN(C)c1ccc(/C=C(\C#N)c2nc3ccccc3c(=O)[nH]2)cc1
answer label: False

compound: CCOC(=O)C(C(C)=O)c1nc2sc3cc(Cl)ccc3n2c(=N)c1C#N (stereo not drawn)
answer label: False

Just curious, what result did CC(=O)O[C@H]1C(=O)[C@@]2(C)C([C@H](OC(=O)c3ccccc3)[C@]3(O)C[C@H](OC(=O)[C@H](O)[C@@H](NC(=O)c4ccccc4)c4ccccc4)C(C)=C1C3(C)C)[C@]1(OC(C)=O)CO[C@@H]1C[C@@H]2O (stereo partly drawn) get here?
False
